Provenance of the data: patent US20190330346A1

Biological target: T1, His-tagged human PD-1 protein (human, UniProt Q15116 25-170, limits assumed)
T1 construct: SPR analyte; also called his-tagged antigen PD-1; not shown: His tag
T1 sequence (Q15116 25-170 limits assumed): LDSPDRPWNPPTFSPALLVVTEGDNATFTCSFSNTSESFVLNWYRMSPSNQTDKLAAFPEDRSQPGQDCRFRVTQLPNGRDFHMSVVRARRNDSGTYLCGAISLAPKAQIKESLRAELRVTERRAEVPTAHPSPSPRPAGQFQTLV
Test: SPR; Fab-SASA captured on immobilised BSA, his-tagged PD-1 as analyte
Exercise: state measured kon for each of the binders provided.
Answers are plain numbers, in M⁻¹ s⁻¹.

Here are 2 binders together with their reported answers.
AS05617 (Fab) (Fab, V domains shown, Humanized Fab-SASA clone from the phage library) VH: EVQLVESGGGLVQPGGSLRLSCAASGFVFSRYDMAWVRQTPGKGLEWVSFISGGGSNTYYPDTVKGRFTISRDNSKNTLYLQMNSLRAEDTAVYYCISPYYYAMEYWGQGTTVTVSS VL: DIQMTQSPSSISTSVGDRVTITCKASQDVDTAVAWYQQKPGKSPKLLIYWASTRHTGVPSRFSGSGSGTDFTLTISSLQPEDFADYFCQQYSTFPWTFGGGTKVEIK: 351000
PD1-BM Ab (Fab) (Fab, V domains shown, Humanized Fab with all 14 back mutations; also called PD1-BM Fab) VH: EVQLVESGGGLVQPGGSLRLSCAASGFVFSRYDMAWVRQTPGKGLEWVAFISGGGSNTYYPDTVKGRFTISRDNSKNTLYLQMNSLRAEDTAVYYCISPYYYAMEYWGQGTTVTVSS VL: DIQMTQSPSSISTSVGDRVTITCKASQDVDTAVAWYQQKPGKSPKLLIHWASTRHTGVPSRFSGSGSGTDFTLTLSSVQPEDLADYFCQQYSTFPWTFGGGTKLEIK: 315000

# return kon for each item in the list
1. AS05614 (Fab, V domains shown, Humanized Fab-SASA clone from the phage library) VH: EVQLVESGGGLVQPGGSLRLSCAASGFVFSRYDMAWVRQTPGKGLEWVSFISGGGSNTYYPDTVKGRFTISRDNSKNTLYLQMNSLRAEDTAVYYCISPYYYAMEYWGQGTTVTVSS VL: DIQMTQSPSSISTSVGDRVTITCKASQDVDTAVAWYQQKPGKSPKLLIHWASTRHTGVPSRFSGSGSGTDFTLTLSSVQPEDFATYFCQQYSTFPWTFGGGTKVEIK
2. AS05618 (Fab, V domains shown, Humanized Fab-SASA clone from the phage library) VH: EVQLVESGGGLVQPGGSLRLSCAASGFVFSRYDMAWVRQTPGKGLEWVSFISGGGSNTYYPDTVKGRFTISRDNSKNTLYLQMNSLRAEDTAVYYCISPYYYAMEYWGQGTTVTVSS VL: DIQMTQSPSSISTSVGDRVTITCKASQDVDTAVAWYQQKPGKSPKLLIHWASTRHTGVPSRFSGSGSGTDFTLTISSLQPEDFADYFCQQYSTFPWTFGGGTKLEIK

363000
369000
